// data source = patent US20260070975A1

test-target: T1, siglec 15 expressed on HEK293 cells (UniProt Q6ZMC9 20-328, limits assumed)
T1 construct: whole, on cells; also called Siglec-6 family member
T1 sequence (looked up): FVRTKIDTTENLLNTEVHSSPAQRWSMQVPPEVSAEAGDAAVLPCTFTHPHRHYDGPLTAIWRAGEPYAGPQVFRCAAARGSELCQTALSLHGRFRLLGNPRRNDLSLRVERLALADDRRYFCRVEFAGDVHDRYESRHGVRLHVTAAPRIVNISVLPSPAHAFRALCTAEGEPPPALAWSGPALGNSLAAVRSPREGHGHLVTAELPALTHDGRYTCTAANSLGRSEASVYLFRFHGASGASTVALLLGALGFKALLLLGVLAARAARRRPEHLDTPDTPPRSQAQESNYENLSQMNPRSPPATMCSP
protocol: flow cytometry on HEK293 cells expressing the target
property-label: binding result

>>> test_result("hRND-5 (antibody, human IgG1, kappa, V domains shown, also called humanized RND-5; hRND-H3b / hRND-L3; copies: 2 + 2) VH: QVQLVQSGAEVKKPGASVKLSCKASGYAFTSYWMHWVRQAPGQRLEWIGEIYPTNGGTTYNEKFKRRATLTVDKSTSTAYMELSRLRSDDTAVYYCTIEDFYAMDYWGQGTTVTVSS VL: DIVMTQTPLSLSVTPGQPASISCKSSQSLLDSDGKTSLNWLLQKPGQSPQRLIYLVSKLDSGVPDRFSGSGSGTDFTLKISRVEAEDVGVYYCWQGTHFPYTFGQGTKLEIKR")
"no binding"
>>> test_result("hRND-2 (antibody, human IgG1, kappa, V domains shown, also called humanized RND-2; hRND-H2 / hRND-L3; copies: 2 + 2) VH: QVQLVQSGAEVKKPGASVKVSCKASGYAFTSYWMHWVRQAPGQRLEWMGEIYPTNGGTTYAQKFQGRVTMTVDKSTSTAYMELSRLRSDDTAVYYCTIEDFYAMDYWGQGTTVTVSS VL: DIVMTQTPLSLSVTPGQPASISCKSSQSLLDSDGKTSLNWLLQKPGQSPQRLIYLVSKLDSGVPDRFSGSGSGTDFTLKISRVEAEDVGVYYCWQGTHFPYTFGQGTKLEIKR")
"no binding"
>>> test_result("hRND-3 (antibody, human IgG1, kappa, V domains shown, also called humanized RND-3; hRND-H3 / hRND-L3; copies: 2 + 2) VH: QVQLVQSGAEVKKPGASVKLSCKASGYAFTSYWMHWVRQAPGQRLEWIGEIYPTNGGTTYAQKFQGRATLTVDKSTSTAYMELSRLRSDDTAVYYCTIEDFYAMDYWGQGTTVTVSS VL: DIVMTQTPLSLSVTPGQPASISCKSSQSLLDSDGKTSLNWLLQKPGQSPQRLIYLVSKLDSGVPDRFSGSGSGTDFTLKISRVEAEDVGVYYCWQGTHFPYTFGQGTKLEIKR")
"no binding"
